target: BRAF (Homo sapiens); construct: GST; purchased Millipore Sigma B4062-10UG; test: BRAF kinase activity assay (ADP-Glo); assay type: biochemical; settings: Table 4
quantity name: IC50

Return IC50 for the following molecule: COc1ccc(S(=O)(=O)Nc2ccc(F)c(Nc3ncnc4c(N)nc(-n5cnc6ccccc65)nc34)c2F)c(C)c1 [Example 88]
> 10 nM

====

Molecular target: CRAF (Homo sapiens)
Assay: CRAF kinase activity assay (ADP-Glo)
Format: biochemical
Conditions: Table 2
Protocol: Compound preparation: solid samples of each substances in 1dram vials were suspended in DMSO (Fisher Scientific) at a stock concentration of 20 mM. Stocks were kept at −20° C. and protected from light. […] BRAF and CRAF kinase reactions were carried out for a total of 2 hours at 30° C. and then stopped by ½ dilution in ADP-Glo Reagent (cat #V9102; Promega; part V912C). […] The effect of each compound dilution on BRAF and CRAF kinase activity was expressed as % inhibition and calculated as follows. […]
Give measured IC50 for each item. Keep answers brief.

• COc1ccc(S(=O)(=O)Nc2ccc(F)c(Nc3ncnc4cnc(SC)nc34)c2F)c(C)c1F = 10 to 50 nM

Turning to the following molecule.
Return IC50 for the following molecule: COc1ccc(S(=O)(=O)Nc2ccc(F)c(Nc3ncnc4cnc(SC)nc34)c2F)cc1
> 50 nM

====

Give measured IC50 for each item. Keep answers brief.
system: HCT116 pERK; assay: Phospho-ERK inhibition, AlphaLISA SureFire Ultra p-ERK 1/2; format: cell-based, human; conditions: Homo sapiens, HCT-116; Table D-1

• Cc1c(F)cccc1S(=O)(=O)Nc1ccc(F)c(Nc2ncnc3cnc(-n4cnc5c(-c6cccnc6)cccc54)nc23)c1F = > 300 nM

Turning to the following molecule.
Return IC50 for the following molecule: Cc1ccc2c(Nc3cccc(Cl)c3F)nccc2c1NC(=O)c1csc2c(N)ncnc12 [Belvarafenib, reference compound]
30 to 300 nM

====

molecular target: BRAF (Homo sapiens, UniProt P15056); construct: GST; purchased Millipore Sigma B4062-10UG; assay: BRAF kinase activity assay (ADP-Glo); assay type: biochemical; conditions: Table 3
Sequence (P15056 whole entry): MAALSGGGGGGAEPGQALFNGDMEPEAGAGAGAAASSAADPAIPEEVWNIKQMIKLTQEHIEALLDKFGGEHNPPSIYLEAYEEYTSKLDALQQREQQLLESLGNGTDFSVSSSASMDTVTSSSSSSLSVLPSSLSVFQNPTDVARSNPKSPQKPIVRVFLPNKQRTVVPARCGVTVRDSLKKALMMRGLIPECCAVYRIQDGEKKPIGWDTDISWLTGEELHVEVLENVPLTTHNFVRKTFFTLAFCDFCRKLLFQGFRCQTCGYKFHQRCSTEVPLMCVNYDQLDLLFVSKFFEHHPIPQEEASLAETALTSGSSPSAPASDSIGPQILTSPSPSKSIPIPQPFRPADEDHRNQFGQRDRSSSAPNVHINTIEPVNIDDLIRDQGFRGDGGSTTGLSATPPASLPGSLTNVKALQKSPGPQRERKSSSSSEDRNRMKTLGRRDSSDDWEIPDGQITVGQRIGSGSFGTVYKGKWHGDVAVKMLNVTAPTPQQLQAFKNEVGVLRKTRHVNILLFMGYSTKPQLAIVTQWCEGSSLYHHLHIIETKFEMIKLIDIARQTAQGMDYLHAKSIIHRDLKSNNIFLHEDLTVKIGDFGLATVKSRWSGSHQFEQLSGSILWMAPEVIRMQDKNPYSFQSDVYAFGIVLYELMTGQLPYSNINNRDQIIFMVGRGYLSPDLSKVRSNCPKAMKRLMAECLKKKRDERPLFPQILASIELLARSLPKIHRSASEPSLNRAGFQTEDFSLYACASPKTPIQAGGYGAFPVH
Give measured IC50 for each item. Keep answers brief.

• Cc1c(F)cccc1S(=O)(=O)Nc1ccc(F)c(Nc2ncnc3cnc(-n4nnc5c(N)cccc54)nc23)c1F = 1 to 10 nM
• O=S(=O)(Nc1ccc(F)c(Nc2ncnc3cnc(-n4nnc5c(N6CCN(CCO)CC6)cccc54)nc23)c1F)c1cccc(Cl)c1Cl = < 1 nM
• COc1ccc(S(=O)(=O)Nc2ccc(F)c(Nc3ncnc4cnc(-n5cnc6c(N)cccc65)nc34)c2F)c(C)c1F = 1 to 10 nM
• Cc1c(F)cccc1S(=O)(=O)Nc1ccc(F)c(Nc2ncnc3cnc(-n4cc(C(=O)N5CCC[C@H](O)C5)c5ccccc54)nc23)c1F = < 1 nM
• COC1CCN(c2cccc3c2ncn3-c2ncc3ncnc(Nc4c(F)ccc(NS(=O)(=O)c5cccc(Cl)c5Cl)c4F)c3n2)CC1 = 1 to 10 nM
• COc1ccc(S(=O)(=O)Nc2ccc(F)c(Nc3ncnc4cnc(N5CC[C@H](F)C5)nc34)c2F)c(C)c1 = > 10 nM
• CN(CCO)c1cccc2c1ncn2-c1ncc2ncnc(Nc3c(F)ccc(NS(=O)(=O)c4cccc(Cl)c4Cl)c3F)c2n1 = 1 to 10 nM
• Cc1c(F)cccc1S(=O)(=O)Nc1ccc(F)c(Nc2ncnc3cnc(-n4nc(C(=O)N5CCN(C)CC5)c5ccccc54)nc23)c1F = < 1 nM

Answer for every listed entry: what is its IC50? The entries follow.
1. COc1ccc(S(=O)(=O)Nc2ccc(F)c(Nc3ncnc4cnc(-n5cnc6ccccc65)nc34)c2F)c(C)c1Cl
2. COc1ccc(S(=O)(=O)Nc2ccc(F)c(Nc3ncnc4cnc(-n5cnc6ccccc65)nc34)c2F)c(C)c1F
3. O=S(=O)(Nc1ccc(F)c(Nc2ncnc3cnc(-n4cnc5c(N6CC(CCO)C6)cccc54)nc23)c1F)c1cccc(Cl)c1Cl

1 to 10 nM
1 to 10 nM
1 to 10 nM

====

system: HCT116 pERK; experiment: Phospho-ERK inhibition, AlphaLISA SureFire Ultra p-ERK 1/2; assay type: cell-based, human; conditions: Table 3; lowest value of the pERK IC50 curve
quantity name: HCT116 (Ymin %)
Numbers only, in %.

• Cc1ncn(-c2ncc3ncnc(Nc4c(F)ccc(NS(=O)(=O)c5ccc(Cl)cc5Cl)c4F)c3n2)c1C [Example 62] = 11
• COc1ccc(S(=O)(=O)Nc2ccc(F)c(Nc3ncnc4cnc(-n5cnc(C)c5)nc34)c2F)cc1OC [Example 30] = −6
• O=S(=O)(Nc1ccc(F)c(Nc2ncnc3cnc(-n4cnc5c(N6CCC7(CCCO7)CC6)cccc54)nc23)c1F)c1cccc(Cl)c1Cl [Example 129] = −8
• COc1ccc(S(=O)(=O)Nc2ccc(F)c(Nc3ncnc4cnc(N5CC[C@@H](F)C5)nc34)c2F)cc1 [Example 38] = −1
• Nc1cccc2c1ncn2-c1ncc2ncnc(Nc3c(F)ccc(NS(=O)(=O)c4cccc(Cl)c4Cl)c3F)c2n1 [Example 80] = −7
• Cc1ncn(-c2ncc3ncnc(Nc4c(F)ccc(NS(=O)(=O)c5ccc6c(c5)CCO6)c4F)c3n2)c1C [Example 65] = 4

Turning to the following compound.
Return HCT116 (Ymin %) for the following compound: CCc1ccccc1S(=O)(=O)Nc1ccc(F)c(Nc2ncnc3cnc(-n4cnc5c(N6CCC(O)(CC)CC6)cccc54)nc23)c1F [Example 149]
4

====

target: CRAF (Homo sapiens, UniProt P04049); experiment: CRAF kinase activity assay (ADP-Glo); type: biochemical; conditions: Table 4
Sequence (P04049 whole entry): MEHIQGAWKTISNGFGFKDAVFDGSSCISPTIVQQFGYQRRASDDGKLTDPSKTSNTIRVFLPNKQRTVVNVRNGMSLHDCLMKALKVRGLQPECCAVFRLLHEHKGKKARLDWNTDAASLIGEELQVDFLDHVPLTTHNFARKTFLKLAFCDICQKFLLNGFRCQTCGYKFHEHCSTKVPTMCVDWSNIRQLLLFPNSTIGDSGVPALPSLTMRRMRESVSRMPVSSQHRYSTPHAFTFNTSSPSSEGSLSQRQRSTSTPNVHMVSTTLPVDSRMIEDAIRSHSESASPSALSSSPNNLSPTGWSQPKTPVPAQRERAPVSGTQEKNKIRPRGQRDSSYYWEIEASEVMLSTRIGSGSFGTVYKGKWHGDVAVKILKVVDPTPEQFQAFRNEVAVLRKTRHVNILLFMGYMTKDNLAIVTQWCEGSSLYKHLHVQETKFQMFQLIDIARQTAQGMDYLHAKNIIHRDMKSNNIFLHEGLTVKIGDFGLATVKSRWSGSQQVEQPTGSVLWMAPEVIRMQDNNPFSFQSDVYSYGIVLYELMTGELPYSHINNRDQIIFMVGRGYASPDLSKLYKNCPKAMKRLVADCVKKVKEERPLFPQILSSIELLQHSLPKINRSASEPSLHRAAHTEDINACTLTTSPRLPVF
quantity name: IC50

Return IC50 for the following compound: COc1ccc(S(=O)(=O)Nc2ccc(F)c(Nc3ncnc4c(N)nc(-n5cnc6ccccc65)nc34)c2F)c(C)c1
> 50 nM

====

tested on: SW480 pERK; experiment: Phospho-ERK inhibition, AlphaLISA SureFire Ultra p-ERK 1/2; type: cell-based, human; conditions: Table 3; lowest value of the pERK IC50 curve
quantity name: SW480 (Ymin %)
Answers are plain numbers, in %.

Known SW480 (Ymin %) results, listed for orientation:
• CCC1CCN(S(=O)(=O)Nc2ccc(F)c(Nc3ncnc4cnc(-n5cnc6ccccc65)nc34)c2F)C1 (stereo not shown) [Example 76] = −9
• COc1ccc(S(=O)(=O)Nc2ccc(F)c(Nc3ncnc4cnc(N5CC(F)(F)C5)nc34)c2F)cc1 [Example 48] = 6
• COc1ccc(S(=O)(=O)Nc2ccc(F)c(Nc3ncnc4cnc(N5CCC(F)(F)C5)nc34)c2F)cc1 [Example 39] = −3

Turning to the following compound.
Provide SW480 (Ymin %), tested on SW480 pERK, for CO[C@@H]1CCN(S(=O)(=O)Nc2ccc(F)c(Nc3ncnc4cnc(-n5ccc6ccccc65)nc34)c2F)C1 [Example 68] .
0

====

system: HCT116 pERK; test: Phospho-ERK inhibition, AlphaLISA SureFire Ultra p-ERK 1/2; format: cell-based, human; settings: Table 3; lowest value of the pERK IC50 curve
Give measured HCT116 (Ymin %) for each item. Keep answers brief.
Answers are plain numbers, in %.

Known HCT116 (Ymin %) results, listed for orientation:
* O=S(=O)(CC1CCOCC1)c1cn(-c2ncc3ncnc(Nc4c(F)ccc(NS(=O)(=O)c5cccc(Cl)c5Cl)c4F)c3n2)c2ccccc12 [Example 144] | −9
* CN(CCO)c1cccc2c1ncn2-c1ncc2ncnc(Nc3c(F)ccc(NS(=O)(=O)c4cccc(Cl)c4Cl)c3F)c2n1 [Example 134] | 8
* COc1ccc(S(=O)(=O)Nc2ccc(F)c(Nc3ncnc4cnc(-n5cnc6c(N)cccc65)nc34)c2F)c(C)c1F [Example 111] | −8.1
* COc1ccc(S(=O)(=O)Nc2ccc(F)c(Nc3ncnc4cnc(N5CC[C@H](F)C5)nc34)c2F)c(C)c1 [Example 57] | −2
* COc1ccc(S(=O)(=O)Nc2ccc(F)c(Nc3ncnc4cnc(N5CCC(F)(F)C5)nc34)c2F)cc1 [Example 39] | 5

Answer for every listed entry: what is its HCT116 (Ymin %)? The entries follow.
1. COc1ccc(S(=O)(=O)Nc2ccc(F)c(Nc3ncnc4cnc(-n5nnc6ccccc65)nc34)c2F)c(C)c1Cl [Example 117]
2. COc1ccc(S(=O)(=O)Nc2ccc(F)c(Nc3ncnc4cnc(N5CCC5)nc34)c2F)cc1 [Example 43]

−1
11

====

Give measured HCT116 (Ymin %) for each item. Keep answers brief.
tested on: HCT116 pERK; test: Phospho-ERK inhibition, AlphaLISA SureFire Ultra p-ERK 1/2; assay type: cell-based, human; settings: Table 3; lowest value of the pERK IC50 curve
Numbers only, in %.

Known HCT116 (Ymin %) results, listed for orientation:
- CC1(O)CCN(c2cccc3c2ncn3-c2ncc3ncnc(Nc4c(F)ccc(NS(=O)(=O)c5cccc(Cl)c5Cl)c4F)c3n2)CC1 [Example 130]: −13
- CCC1(O)CCN(c2cccc3c2ncn3-c2ncc3ncnc(Nc4c(F)ccc(NS(=O)(=O)c5cccc6c5OC(F)(F)O6)c4F)c3n2)CC1 [Example 151]: 10
- CO[C@@H]1CCN(S(=O)(=O)Nc2ccc(F)c(Nc3ncnc4cnc(-n5cnc6ccccc65)nc34)c2F)C1 [Example 59]: 11
- Cc1c(F)cccc1S(=O)(=O)Nc1ccc(F)c(Nc2ncnc3cnc(-n4nc(C(=O)N(C)C)c5ccccc54)nc23)c1F [Example 105]: −8.7

Answer for every listed entry: what is its HCT116 (Ymin %)? The entries follow.
1. COc1ccc(S(=O)(=O)Nc2ccc(F)c(Nc3ncnc4cnc(-n5cnc6ccccc65)nc34)c2F)cc1 [Example 36]
2. COc1ccc(S(=O)(=O)Nc2ccc(F)c(Nc3ncnc4cnc(-n5nnc6ccccc65)nc34)c2F)c(C)c1F [Example 118]

1. 10
2. −14

Provide HCT116 (Ymin %), tested on HCT116 pERK, for COc1ccc(S(=O)(=O)Nc2ccc(F)c(Nc3ncnc4cnc(-n5cnc(C)c5C)nc34)c2F)c(C)c1 [Example 56] .
−10

FYI, the data here is from patent US20240239801A1.
